Data provenance is patent US20260327255A1.

Target: mutant CBX8 (Y39F) (Homo sapiens, UniProt Q9HC52, Y39F)
Construct: Time dependent fluorescence polarization displacement assays of indicated chromodomains with P2
Sequence (Q9HC52 11-69 Y39F limits assumed): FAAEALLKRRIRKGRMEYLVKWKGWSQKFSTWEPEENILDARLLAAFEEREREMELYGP
Assay: Time-dependent fluorescence polarization displacement assay, CBX8 Y39F
Value kind: pIC50
FYI, pIC50 means -log10 of a concentration in mol per litre.

Record CC[C@H](C)[C@H](NC(=O)[C@@H](NC(=O)c1ccc(Oc2ccccc2)cc1)C1CCCC1)C(=O)N[C@@H](CCCCN(CC)CCCCCCN1CCN=CC1=O)C(=O)N[C@@H](CO)C(N)=O , field pIC50: 5.14
